# reported IC50; entries follow
Test system: pSTAT5/GM-CSF
assayText: pSTAT5/GM-CSF cellular assay (JAK2 selectivity)
Format: cell-based

// solved cases for IC50 follow
Which IC50 is reported for this compound? CC(=O)Nc1cc(Nc2cc(OC(F)(F)F)cc(S(C)(=O)=O)c2)c(-c2ccc(C(C)(C)O)cn2)cn1 [Example H18] > 10 µM

Which IC50 is reported for this compound? COCCOc1cc(Nc2cc(NC(C)=O)ncc2-c2cc(N3CCOCC3)n(C)n2)nc(S(C)(=O)=O)c1 [Example O2] 7.01 µM

Which IC50 is reported for this compound? CC(=O)Nc1cc(Nc2cccc(S(C)(=O)=O)c2)c(-c2ccn(C)n2)cn1 [Example J6] > 10 µM

Which IC50 is reported for this compound? CC(=O)Nc1cc(Nc2cc(OCC3CC3)cc(S(C)(=O)=O)n2)c(-c2ccc(C(C)(C)O)cn2)cn1 [Example H30] > 10 µM

Which IC50 is reported for this compound? CC(=O)Nc1cc(Nc2cccc(S(=O)(=O)C3CC3)n2)c(-c2ccn(C)n2)cn1 [Example J28] > 10 µM

Which IC50 is reported for this compound? COc1ccc(S(C)(=O)=O)nc1Nc1cc(NC(C)=O)ncc1-c1ccn(C)n1 [Example J23] 1.35 µM

---
Which IC50 is reported for this compound? CC(=O)Nc1cc(Nc2cc(C)cc(S(C)(=O)=O)n2)c(-c2ccc(OC(C)C)nn2)cn1 [Example A29] > 10 µM

Which IC50 is reported for this compound? CC(=O)Nc1cc(Nc2cc(C(F)F)cc(S(C)(=O)=O)c2)c(-c2ccn(C)n2)cn1 [Example J32] > 10 µM

Which IC50 is reported for this compound? COC1CC(Oc2cc(Nc3cc(NC(C)=O)ncc3-c3ccc(C(C)(C)O)cn3)nc(S(C)(=O)=O)c2)C1 (stereo not drawn) [Example H29] 8.49 µM

Which IC50 is reported for this compound? CCn1ccc(-c2cnc(NC(C)=O)cc2Nc2cc(OCCOC)cc(S(C)(=O)=O)c2)n1 [Example M14] > 10 µM

Which IC50 is reported for this compound? CC(=O)Nc1cc(Nc2ccc(C)c(S(C)(=O)=O)n2)c(-c2ccn(C)n2)cn1 [Example J51] > 10 µM

Which IC50 is reported for this compound? CC(=O)Nc1cc(Nc2cc(N3CCOC[C@@H]3C)cc(S(C)(=O)=O)n2)c(-c2ccc3c(n2)OCC(C)(C)O3)cn1 [Example Q35] 1.81 µM

Which IC50 is reported for this compound? COC(C)c1cc(Nc2cc(NC(C)=O)ncc2-c2ccc(N3C[C@@H](C)O[C@@H](C)C3)cn2)nc(S(C)(=O)=O)c1 (stereo partly drawn) [Example C18] 4.87 µM

Which IC50 is reported for this compound? CC(=O)Nc1cc(Nc2cc(N3CCC(O)C3)cc(S(C)(=O)=O)c2)c(-c2ccc(C(C)(C)O)cn2)cn1 (stereo not drawn) [Example H17] > 10 µM

Which IC50 is reported for this compound? CCn1ccc(-c2cnc(NC(C)=O)cc2Nc2nc(S(C)(=O)=O)ccc2OC(C)C)n1 [Example M21] > 10 µM

----------
System: JAK2, TYK2/p-STAT4 (Tyr693) activated by IL-12 in NK-92 cell line
assayText: IL-12-JAK2, TYK2/p-STAT4 (Tyr693) inhibition IC50 cellular assay
Format: cell-based
assayContext: Cellular assay; pSTAT5/GM-CSF IC50 vs pSTAT4/IL-12 IC50
# reported Selectivity fold (TYK2/JAK2); entries follow

Which Selectivity fold (TYK2/JAK2) is reported for this compound? CC(=O)Nc1cc(Nc2cc(OC(C)C)cc(S(C)(=O)=O)n2)c(-c2ccc(N3C[C@@H](C)O[C@@H](C)C3)cn2)cn1 >2298 fold

Which Selectivity fold (TYK2/JAK2) is reported for this compound? CC(=O)Nc1cc(Nc2cc(OC[C@H](C)O)cc(S(C)(=O)=O)n2)c(-c2ccc(C(F)(F)F)cn2)cn1 >2814 fold

Which Selectivity fold (TYK2/JAK2) is reported for this compound? CC(=O)Nc1cc(Nc2cc(O[C@H]3C[C@@H](O)C3)cc(S(C)(=O)=O)n2)c(-c2ccc(C(C)(C)O)cn2)cn1 >342 fold

---
Which Selectivity fold (TYK2/JAK2) is reported for this compound? COCCOc1cc(Nc2cc(NC(C)=O)ncc2-c2ccc(C(C)(C)O)cn2)nc(S(C)(=O)=O)c1 7097 fold

Which Selectivity fold (TYK2/JAK2) is reported for this compound? COCc1cc(Nc2cc(NC(C)=O)ncc2-c2ccc(C(C)(C)O)cn2)nc(S(C)(=O)=O)c1 6028 fold

Which Selectivity fold (TYK2/JAK2) is reported for this compound? CC(=O)Nc1cc(Nc2cc(C(F)F)cc(S(C)(=O)=O)c2)c(-c2ccc(C(C)(C)O)cn2)cn1 >1328 fold

Which Selectivity fold (TYK2/JAK2) is reported for this compound? CC(=O)Nc1cc(Nc2cc(OCC3CC3)cc(S(C)(=O)=O)c2)c(-c2ccc(N3C[C@@H](C)O[C@@H](C)C3)cn2)cn1 >381 fold

----------
# reported IC50; entries follow
System: pSTAT5/GM-CSF
assayText: pSTAT5/GM-CSF cellular assay (JAK2 selectivity)
Type: cell-based

Under pSTAT5/GM-CSF: IC50 value of CC(=O)Nc1cc(Nc2cc(N3CCOCC3)cc(S(C)(=O)=O)n2)c(-c2ccc3c(n2)OCC(C)(C)O3)cn1 ? 3.96 µM

Under pSTAT5/GM-CSF: IC50 value of CC(=O)Nc1cc(Nc2cccc(S(C)(=O)=O)c2)c(-c2ccc(N3CCOCC3=O)cn2)cn1 ? > 10 µM

Under pSTAT5/GM-CSF: IC50 value of CO[C@H](C)COc1cc(Nc2cc(NC(C)=O)ncc2-c2ccn(C)n2)nc(S(C)(=O)=O)c1 ? > 10 µM

Under pSTAT5/GM-CSF: IC50 value of COCCOc1ccc(-c2cnc(NC(C)=O)cc2Nc2cc(C(F)(F)F)cc(S(C)(=O)=O)c2)nc1 ? > 10 µM

Under pSTAT5/GM-CSF: IC50 value of CCOc1cc(Nc2cc(NC(C)=O)ncc2-c2cc(C)n(C)n2)nc(S(C)(=O)=O)c1 ? > 10 µM

Under pSTAT5/GM-CSF: IC50 value of CC(=O)Nc1cc(Nc2cc(O[C@H]3C[C@@H](O)C3)cc(S(C)(=O)=O)n2)c(-c2ccn(C)n2)cn1 ? > 10 µM

Turning to the following molecule.
Under pSTAT5/GM-CSF: IC50 value of COCCOc1ccc(-c2cnc(NC(C)=O)cc2Nc2cccc(S(C)(=O)=O)n2)nc1 [Example D1] ? > 10 µM

----------
Tested on: JAK2, TYK2/p-STAT4 (Tyr693) activated by IL-12 in NK-92 cell line
assayText: IL-12-JAK2, TYK2/p-STAT4 (Tyr693) inhibition IC50 cellular assay
Assay type: cell-based
assayContext: Cellular assay; pSTAT5/GM-CSF IC50 vs pSTAT4/IL-12 IC50
Excerpt: Assay C: IL-12-JAK2, TYK2/p-STAT4 (Tyr693) Inhibition IC50 Cellular Assay To evaluate the inhibition effect of compounds disclosed herein on JAK2, TYK2/p-STAT4 (Tyr693) activated by IL-12 in NK-92 cell line, NK-92 cells were collected and washed 3 times by DPBS and resuspended in MEM-α (GIBCO, Cat #12561056) with 10% FBS (Gibco, Cat #10099, Lot #1891605), without IL-2 (R&D systems, Cat #202-IL), starved overnight. […] Read on BMG PheraStar with Alphascreen protocol. […]
# reported Selectivity fold (TYK2/JAK2); entries follow

// solved cases for Selectivity fold (TYK2/JAK2) follow
Which Selectivity fold (TYK2/JAK2) is reported for this compound? CC(=O)Nc1cc(Nc2cc(OC3COC3)cc(S(C)(=O)=O)n2)c(-c2ccc(C(C)(C)O)cn2)cn1 >3676 fold

Which Selectivity fold (TYK2/JAK2) is reported for this compound? CC(=O)Nc1cc(Nc2cc(C)cc(S(C)(=O)=O)n2)c(-c2ccc(C(C)(C)N)cn2)cn1 2124 fold

Which Selectivity fold (TYK2/JAK2) is reported for this compound? COCCOc1ccc(-c2cnc(NC(C)=O)cc2Nc2cc(OCC3CC3)cc(S(C)(=O)=O)c2)nc1 >789 fold

Which Selectivity fold (TYK2/JAK2) is reported for this compound? COCc1ccc(-c2cnc(NC(C)=O)cc2Nc2cc(OC[C@@H](C)OC)cc(S(C)(=O)=O)n2)nc1 >15503 fold

Which Selectivity fold (TYK2/JAK2) is reported for this compound? CC(=O)Nc1cc(Nc2cccc(S(C)(=O)=O)c2)c(-c2cc(C)nc(C)n2)cn1 >196 fold

---
Which Selectivity fold (TYK2/JAK2) is reported for this compound? COCCOc1cc(Nc2cc(NC(C)=O)ncc2-c2ccc(COC)cn2)nc(S(C)(=O)=O)c1 >19960 fold
